The measurements presented in this section are drawn from the supplement of paper PMC9763283.

tested on: SKBR3-P; test: area under growth-rate inhibition curve (AUC GRI) (dimensionless (GR-based AUC)); higher = less growth inhibition; details: exposure time: 72 h; concentrations: 0.1, 1, 10 uM

{"molecule": "CN1CC(C(=O)NC2(C)OC3(O)C4CCCN4C(=O)C(Cc4ccccc4)N3C2=O)C=C2c3cccc4[nH]cc(c34)CC21 (configuration not stated) [ergotamine]", "targetDesc": "SKBR3-P", "area under growth-rate inhibition curve": 1.02}
{"molecule": "CC/C(=C(\\c1ccccc1)c1ccc(OCCN(C)C)cc1)c1ccccc1.O=C(O)CC(O)(CC(=O)O)C(=O)O [Tamoxifen Citrate]", "targetDesc": "SKBR3-P", "area under growth-rate inhibition curve": 0.938}
{"molecule": "CNS(=O)(=O)CCc1ccc2[nH]cc(C3CCN(C)CC3)c2c1.[Cl-].[H+] [Naratriptan]", "targetDesc": "SKBR3-P", "area under growth-rate inhibition curve": 0.994}
{"molecule": "CN[C@H](CC(=O)O)C(=O)O [NMDA (N-Methyl-D-aspartic acid)]", "targetDesc": "SKBR3-P", "area under growth-rate inhibition curve": 1.07}
{"molecule": "O=C1CCCC2C3CCCN4CCCC(CN12)C34 (single isomer, unassigned; (+)) [(+)-Matrine]", "targetDesc": "SKBR3-P", "area under growth-rate inhibition curve": 1.02}
{"molecule": "Cl.NC(CO)C(=O)NNCc1ccc(O)c(O)c1O (configuration not stated) [Benserazide HCl]", "targetDesc": "SKBR3-P", "area under growth-rate inhibition curve": 1.03}
{"molecule": "CCN1CCCC1CNC(=O)c1cc(S(N)(=O)=O)ccc1OC (configuration not stated) [Levosulpiride]", "targetDesc": "SKBR3-P", "area under growth-rate inhibition curve": 1.01}
{"molecule": "Cc1nc2n(c(=O)c1CCN1CCC(c3noc4cc(F)ccc34)CC1)CCCC2O (configuration not stated) [Paliperidone]", "targetDesc": "SKBR3-P", "area under growth-rate inhibition curve": 1.02}
{"molecule": "CC(C)NCC(O)c1ccc(NS(C)(=O)=O)cc1.[Cl-].[H+] (configuration not stated) [Sotalol]", "targetDesc": "SKBR3-P", "area under growth-rate inhibition curve": 1.03}
{"molecule": "CC(C)(Cc1ccc2ccccc2c1)NC[C@@H](O)COc1cccc(Cl)c1C#N [NPS-2143]", "targetDesc": "SKBR3-P", "area under growth-rate inhibition curve": 0.833}
{"molecule": "CN1C2CCC1CC(OC(=O)C(CO)c1ccccc1)C2 (configuration not stated) [Hyoscyamine]", "targetDesc": "SKBR3-P", "area under growth-rate inhibition curve": 1.04}
{"molecule": "COc1cc(OC)c(NC(=O)Nc2cc(C)on2)cc1Cl", "targetDesc": "SKBR3-P", "area under growth-rate inhibition curve": 1}
{"molecule": "CC(COc1ccccc1)N(CCCl)Cc1ccccc1.[Cl-].[H+] (configuration not stated) [Phenoxybenzamine HCl]", "targetDesc": "SKBR3-P", "area under growth-rate inhibition curve": 1.01}
{"molecule": "COc1ccccc1Oc1c(NS(=O)(=O)c2ccc(C(C)(C)C)cc2)nc(-c2ncccn2)nc1OCCO [Bosentan]", "targetDesc": "SKBR3-P", "area under growth-rate inhibition curve": 1.02}
{"molecule": "[Cl-].[H+].c1ccc(CC2=NCCN2)cc1 [Tolazoline HCl]", "targetDesc": "SKBR3-P", "area under growth-rate inhibition curve": 1.02}
{"molecule": "O=C(c1ccc(OCCN2CCCCC2)cc1)c1c(-c2ccc(O)cc2)sc2cc(O)ccc12.[Cl-].[H+] [Raloxifene HCl]", "targetDesc": "SKBR3-P", "area under growth-rate inhibition curve": 0.996}
{"molecule": "CC[C@@H](CO)NC(=O)[C@@H]1C=C2c3cccc4[nH]cc(c34)C[C@H]2N(C)C1.O=C(O)/C=C\\C(=O)O [Methylergometrine maleate]", "targetDesc": "SKBR3-P", "area under growth-rate inhibition curve": 1.04}
